Structures can show the parent of a compound that is named as a salt.
Recorded measurements of melting point, one per entry

Observe how each entry below is paired with its result.
COc1cc2c(Nc3ccc(Cl)cc3F)ncnc2cc1OCCN1CCNC1=O [Example 40]
> 250 °C
COc1cc2ncnc(Nc3ccc(C)c(O)c3)c2c([N+](=O)[O-])c1OC.Cl
206 to 208 °C
COc1cc2c(Nc3ccc(Cl)cc3F)ncnc2cc1OCCCS(C)(=O)=O (as salt: hydrochloride) [Example 16]
> 250 °C

Now let's try a different one.
# input Which measured melting point value corresponds to COc1cc2c(Nc3ccc(Cl)cc3F)ncnc2cc1OCCN1C(=O)CCCC1=O [Example 35] ?
# output 202 to 203 °C

###

Recorded measurements of melting point, one per entry

Observe how each entry below is paired with its result.
COc1cc2c(Nc3ccc(Cl)cc3F)ncnc2cc1OCCN1CCCC1=O.Cl [Example 39]
250 to 252 °C
COCCOc1cc2ncnc(Nc3ccc(C)c(OC(C)=O)c3)c2cc1OC [Example 1]
180 to 183 °C
COc1cc2c(Nc3ccc(Cl)cc3F)ncnc2cc1OCCNC(=O)OC(C)(C)C [Example 34]
190 to 191 °C
COc1cc2c(Nc3ccc(Cl)cc3F)ncnc2cc1OCCN1CCSCC1 [Example 12]
181 to 182 °C
COc1cc2c(Nc3ccc(Br)cc3F)ncnc2cc1OCCCS(C)(=O)=O [Example 32]
> 250 °C

# input Which measured melting point value corresponds to COc1cc2c(Nc3ccc(Cl)cc3F)ncnc2cc1OCC#CCN1CCOCC1.Cl.O (hydrate or solvate) [Example 10] ?
# output 175 to 178 °C

# input Another: COc1cc2c(Nc3ccc(Cl)cc3F)ncnc2cc1OCCS(C)(=O)=O [Example 30]
# output 227 to 230 °C
